# system-name: GRK2 (Homo sapiens)
# Construct: purchased SignalChem A14-10G
# Sequence (P25098 whole entry): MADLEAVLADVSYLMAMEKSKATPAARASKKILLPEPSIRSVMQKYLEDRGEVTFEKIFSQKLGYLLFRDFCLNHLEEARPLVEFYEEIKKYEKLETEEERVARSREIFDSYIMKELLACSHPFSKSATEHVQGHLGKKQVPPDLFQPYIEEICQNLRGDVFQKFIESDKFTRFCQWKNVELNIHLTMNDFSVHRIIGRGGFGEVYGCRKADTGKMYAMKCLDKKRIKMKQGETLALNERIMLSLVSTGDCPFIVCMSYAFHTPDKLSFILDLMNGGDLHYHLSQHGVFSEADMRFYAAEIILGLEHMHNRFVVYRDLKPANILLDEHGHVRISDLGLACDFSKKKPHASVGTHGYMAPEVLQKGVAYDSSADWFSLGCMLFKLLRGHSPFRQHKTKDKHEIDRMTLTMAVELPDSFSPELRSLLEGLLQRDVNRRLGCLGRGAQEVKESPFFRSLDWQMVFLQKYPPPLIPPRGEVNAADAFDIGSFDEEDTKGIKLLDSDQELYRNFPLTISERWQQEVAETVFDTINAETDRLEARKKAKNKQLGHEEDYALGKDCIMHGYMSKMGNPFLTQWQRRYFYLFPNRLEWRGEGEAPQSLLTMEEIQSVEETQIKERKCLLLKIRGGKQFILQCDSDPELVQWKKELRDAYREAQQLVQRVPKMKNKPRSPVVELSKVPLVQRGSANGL
# experimental-details: ADPGlo GRK2 Inhibition Assay (Example 8)
# Format: biochemical
# settings: Enzyme Assay A, ADPGlo (Example 8); read-out: A: Enzymatic GRK2: IC50 (nM) (Example 8)
Response field label takes Met when IC50 is strictly below 10 nM and Not met in all other cases.

State whether 10 nM exceeds IC50 recorded for Cc1ccc2ncc(CNC(=O)c3cccc(NCc4nnc(-c5ccncn5)n4C)c3)n2c1 [drawing 596] .
Met

State whether 10 nM exceeds IC50 recorded for Cc1ccn2c(CNC(=O)c3cccc(NCc4nnc(-c5ccncn5)n4C)c3)cnc2c1 [drawing 620] .
Met

State whether 10 nM exceeds IC50 recorded for "Cc1ccc2c(c1)OCC[C@@H]2NC(=O)c1cccc(NCc2nnc(-c3ccncn3)n2C)c1" .
Not met

State whether 10 nM exceeds IC50 recorded for "O=C(N[C@H]1COc2cc(F)ccc21)c1cccc(NCc2nnc(-c3ccncc3)n2CCO)c1" .
Not met

State whether 10 nM exceeds IC50 recorded for "Cn1c(CNc2cccc(C(=O)N[C@H]3CCOc4ccccc43)c2)nnc1-c1ccncc1F" .
Not met

State whether 10 nM exceeds IC50 recorded for "Cn1c(CNc2cccc(C(=O)NCc3cccc(C(F)F)c3)c2)nnc1-c1ccncn1" .
Not met

State whether 10 nM exceeds IC50 recorded for "Cn1c(CNc2cccc(C(=O)N[C@H]3COc4cc(F)ccc43)c2)nnc1-c1ccncn1" .
Met

State whether 10 nM exceeds IC50 recorded for "Cn1c(CNc2cccc(C(=O)N[C@@H](CF)c3ccccc3)c2)nnc1-c1ccncn1" .
Not met

State whether 10 nM exceeds IC50 recorded for C[C@H](NC(=O)c1cccc(NCc2nnc(-c3ccncn3)n2C)c1)C1NCCS1 (some centres unmarked) .
Not met

State whether 10 nM exceeds IC50 recorded for "O=C(N[C@@H]1COc2cc(F)ccc21)c1cccc(NCc2nnc(-c3ccncc3)n2CCO)c1" .
Met

State whether 10 nM exceeds IC50 recorded for Cc1cnc(C(C)NC(=O)c2cccc(NCc3nnc(-c4ccncc4)[nH]3)c2)o1 (centres unmarked) .
Not met

State whether 10 nM exceeds IC50 recorded for O=C(NC(CO)c1ccccn1)c1cccc(NCc2nnc(-c3ccncc3)[nH]2)c1 (centres unmarked) .
Not met

State whether 10 nM exceeds IC50 recorded for "Cn1c(CNc2cccc(C(=O)NCc3ccnnc3)c2)nnc1-c1ccncn1" .
Not met

State whether 10 nM exceeds IC50 recorded for "O=C(N[C@H]1COCc2ccccc21)c1cccc(NCc2nnc(-c3ccncc3)n2CCO)c1" .
Not met

State whether 10 nM exceeds IC50 recorded for "Cn1c(CNc2cccc(C(=O)N[C@@H]3COCc4c(Cl)cccc43)c2)nnc1-c1ccncc1F" .
Not met

State whether 10 nM exceeds IC50 recorded for "O=C(NC1(c2ccncn2)CC1)c1cccc(NCc2nnc(-c3ccncc3)[nH]2)c1" .
Not met

State whether 10 nM exceeds IC50 recorded for Cn1c(CNc2cccc(C(=O)NC(CCO)c3ccc(F)cc3)c2)nnc1-c1ccncn1 (centres unmarked) .
Not met

State whether 10 nM exceeds IC50 recorded for "CCn1ncc(Cl)c1CNC(=O)c1cccc(NCc2nnc(-c3ccncc3)[nH]2)c1" .
Not met

State whether 10 nM exceeds IC50 recorded for "CNS(=O)(=O)c1cccc(F)c1CNC(=O)c1cccc(NCc2nnc3n2CCOc2cnccc2-3)c1" .
Not met

State whether 10 nM exceeds IC50 recorded for "Cn1c(CNc2cccc(C(=O)NCc3cccc(C#N)c3F)c2)nnc1-c1ccncn1" .
Not met
